# assay.text: TUNEL / propidium iodide flow cytometry, PBMC all cells, culture medium
# Format: cell-based, human
# settings: human, pbmc, PBMC all cells, 100 μg/ml, 6 h; mean ± SD of two experiments; read-out: % Propidium Iodide Positive
endpoint.label: cytotoxicity at 6 h (%)
Entry rule: numbers only, all in %.

Query block: Which cytotoxicity at 6 h reading was recorded for the molecule O=S1(=O)CCN(CN2CCS(=O)(=O)NC2)CN1 ?
Result block: 9

----------
# assay.text: propidium iodide flow cytometry, PBMC all cells, whole blood
# Assay type: cell-based
# settings: human, 500 μg/ml, mean ± SD of 2 experiments
endpoint.label: cytotoxicity at 6 h (%)
Entry rule: numbers only, all in %.

Query block: Which cytotoxicity at 6 h reading was recorded for the compound O=S1(=O)CCN(CN2CCS(=O)(=O)NC2)CN1 ?
Result block: 1.4
